- TEST_SUMMARY: KB-3-1 Cancer Cell Toxicity qHTS against the NCATS CANVASS Library (AID 1347366); note: nearly all actives have a fitted effect of over 75% in size
- TEST_CONDITIONS: KB-3-1 viability, CellTiter-Glo luminescence, 72 h; series mostly up to 46.1 µM
Results filed as inconclusive are left out. Activity calls are given as the source filed them. Calls come from the whole dose curve; as a rule, active = well fitted cell-killing curve with a large enough effect; inconclusive = small, poorly fitted or top-dose-only effect; inactive = flat fitted curve, though single readings scatter.
ASSAY_METRIC: outcome

In [3]: df
Out[3]:
                                   molecule    result
0  CC1=C2CC[C@]3(C)[C@H](CC=C4[C@@H]5CC(C)(C)CC[C@@H]5C(=O)[C@H](O)[C@]43C)[C@@]2(C)C=C(O)C1=O  inactive
1  C/C=C(/C)c1cc(O)c(C)c2c1Oc1cc(O)cc(C)c1C(=O)O2  inactive
2  C/C(=C\[C@@H](C)CC/C=C/CC/C=C/C(=O)O)[C@@H](O)[C@H](C)C(=O)CCCC1CC(=O)NC(=O)C1  inactive
3  C[C@]12CCC[C@](C)(C(=O)O)[C@@H]1CC[C@@]1(C)c3cocc3CC[C@H]21  inactive
4  CN1CC[C@@]23c4ccccc4N[C@@H]1[C@@]21CCN(C)[C@@H]3Nc2ccccc21  inactive
5  COC(=O)[C@]1([C@H]2CCC(=O)O2)CC(=O)c2c(O)cc(C)cc2O1  inactive
6  C/C=C(/C)c1c(Cl)c(OC)c(C)c2c1Oc1c(Cl)c(O)c(Cl)c(C)c1C(=O)O2  inactive
7  CCC(C)=C1OC(=O)[C@H](C)[C@H](O)[C@H](Cc2cccnc2)NC(=O)C(NC(=O)c2ncccc2O)C(C)OC1=O (stereo partly drawn)  inactive

---

- TEST_TARGET: Calcium and integrin-binding protein 1 (Homo sapiens)
- TEST_SUMMARY: Primary qHTS for Identification of Calcium Integrin Binding Protein 1 (CIB1) Competitor (AID 1508620);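 note: GST tagged CIB1 binding a fluorescein labelled alphaIIb integrin peptide tracer; top concentration of the series differs between compounds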
- TEST_CONDITIONS: CIB1-GST / FITC-alphaIIb peptide fluorescence polarization; series mostly up to 114 µM
Records with an inconclusive call do not appear. Active and inactive are the calls of the source. Calls follow the shape of the dose curve; as a rule, active = well fitted inhibition curve with a large enough effect; inconclusive = small, poorly fitted or top-dose-only effect; inactive = flat fitted curve, though single readings scatter.
ASSAY_METRIC: outcome

>>> print(df.to_string())
                                    compound                               test_target    result
 0  CC(=O)c1cc2c(s1)c1cnn(Cc3ccccc3F)c(=O)c1n2C  Calcium and integrin-binding protein 1 (Homo sapiens)  inactive
 1  Cc1cccc(C2N=C(Nc3nc4ccccc4o3)NC3=C2C(=O)CCC3)c1 (stereo unspecified)  Calcium and integrin-binding protein 1 (Homo sapiens)  inactive
 2  CCN(CC)c1ccc(NC(=O)Nc2ccc(C(C)=O)cc2)cc1  Calcium and integrin-binding protein 1 (Homo sapiens)  inactive
 3  COc1cccc(C2=Nn3c(nnc3-c3ccc(OC)cc3OC)SC2)c1  Calcium and integrin-binding protein 1 (Homo sapiens)  inactive
 4  COCCCc1cc(F)c(S(=O)(=O)N2CCN(S(=O)(=O)c3ccc4c(c3)OCCO4)CC2)cc1F  Calcium and integrin-binding protein 1 (Homo sapiens)  inactive
 5  Cc1cc(C)nc(NC(=S)N2CCN(c3cc(Cl)cc(Cl)n3)CC2)c1  Calcium and integrin-binding protein 1 (Homo sapiens)  inactive
 6  O=C1CCCC2=C1C(c1[nH]ncc1Cl)NC(=NCc1ccoc1)N2 (stereo unspecified)  Calcium and integrin-binding protein 1 (Homo sapiens)  inactive
 7  COc1ccc(-c2ccc(=O)n(CC(=O)NCCc3ccccc3)n2)cc1  Calcium and integrin-binding protein 1 (Homo sapiens)  inactive
 8  O=C(Nc1cccc(-c2nn3c(=O)cc(N4CCNCC4)nc3s2)c1)c1ccncc1  Calcium and integrin-binding protein 1 (Homo sapiens)  inactive
 9  O=C(O)c1cccc(S(=O)(=O)N2CCN(S(=O)(=O)c3ccc4c(c3)OCCO4)CC2)c1  Calcium and integrin-binding protein 1 (Homo sapiens)  inactive
10  COc1ccc(C(=O)N(Cc2ccccc2)Cc2ccccc2)cc1COc1ccc(NC(C)=O)cc1  Calcium and integrin-binding protein 1 (Homo sapiens)  inactive
11  Cc1cc(NS(=O)(=O)c2ccc(NC(=O)Cc3ccc(C)c(F)c3)cc2)no1  Calcium and integrin-binding protein 1 (Homo sapiens)  inactive
12  COc1ccccc1C(=O)NCCc1nc2ccccc2n1CCOc1ccc(C)cc1  Calcium and integrin-binding protein 1 (Homo sapiens)  inactive
13   Cc1cc(C)n2ncc(C(=O)Nc3ccc(C)c(C)c3)c2n1  Calcium and integrin-binding protein 1 (Homo sapiens)  inactive
14         O=C(Cc1ccccc1)Nc1nnc(-c2ccncc2)s1  Calcium and integrin-binding protein 1 (Homo sapiens)  inactive
15  COc1ccc(-c2nnc3n2N=C(c2ccc(OC)c(OC)c2)CS3)cc1  Calcium and integrin-binding protein 1 (Homo sapiens)  inactive
16  COc1ccc(C2Nc3ccccc3C(=O)N2Cc2ccc(C(F)(F)F)o2)cc1COc1c(C)cccc1C (stereo unspecified)  Calcium and integrin-binding protein 1 (Homo sapiens)  inactive
17  COc1cccc(NC(=S)N2CCN(c3ccc(Cl)cc3Cl)CC2)n1  Calcium and integrin-binding protein 1 (Homo sapiens)  inactive
18  Cc1nc(Nc2ccccc2)c2nc(-c3ccccc3)n(CCCN3CCCCC3C)c2n1 (stereo unspecified)  Calcium and integrin-binding protein 1 (Homo sapiens)  inactive
19  O=C(OCC#CCSc1nnc(-c2cccc3ccccc23)o1)c1ccc(F)nc1  Calcium and integrin-binding protein 1 (Homo sapiens)  inactive
20  O=[S+]([O-])(c1ccc2c(c1)OCCO2)N1CCN([S+](=O)([O-])c2c(F)cc(F)cc2Br)CC1  Calcium and integrin-binding protein 1 (Homo sapiens)  inactive

---

- TEST_TARGET: Cytochrome P450 3A4 (Homo sapiens) (UniProt P08684)
- Sequence (P08684 whole entry, looked up): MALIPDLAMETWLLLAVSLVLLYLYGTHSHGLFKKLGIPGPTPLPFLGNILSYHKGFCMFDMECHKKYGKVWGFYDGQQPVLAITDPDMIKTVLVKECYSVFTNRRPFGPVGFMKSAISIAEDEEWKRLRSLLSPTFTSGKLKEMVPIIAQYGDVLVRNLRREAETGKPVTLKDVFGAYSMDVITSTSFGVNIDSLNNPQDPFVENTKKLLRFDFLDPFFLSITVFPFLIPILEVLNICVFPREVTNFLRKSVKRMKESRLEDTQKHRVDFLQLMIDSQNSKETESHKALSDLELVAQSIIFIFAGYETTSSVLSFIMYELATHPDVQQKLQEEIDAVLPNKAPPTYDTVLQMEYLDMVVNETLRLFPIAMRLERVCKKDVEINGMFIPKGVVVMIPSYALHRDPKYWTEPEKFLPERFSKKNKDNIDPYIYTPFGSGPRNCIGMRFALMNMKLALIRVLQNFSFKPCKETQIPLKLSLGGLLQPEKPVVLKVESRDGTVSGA
- TEST_SUMMARY: qHTS Assay for Inhibitors and Substrates of Cytochrome P450 3A4 (AID 884); note: nearly all actives have a fitted effect of over 50% in size
- TEST_CONDITIONS: recombinant CYP3A4, Luciferin-PPXE luminescence; series mostly up to 57.1 µM
Results filed as inconclusive are left out. The source made the active and inactive calls. Calls follow the shape of the dose curve; as a rule, active = well fitted inhibition curve with a large enough effect; inconclusive = small, poorly fitted or top-dose-only effect; inactive = no such curve, though single readings can be large or run the other way.
Labels: active, inactive

MOLECULE	ASSIGNED_CATEGORY
FC(F)(F)c1ccccc1-c1ccc2ncnc(NCc3cccnc3)c2c1	active
CC(=O)NCCNc1ncncc1-c1ccc(N(C)C)cc1	active
C[C@@H]1[C@H](O)[C@@H](C)/C=C/C=C/C=C/C=C/C=C/C=C/C=C/[C@H](O[C@@H]2O[C@H](C)[C@@H](O)[C@H](N)[C@@H]2O)C[C@@H]2O[C@](O)(C[C@@H](O)C[C@@H](O)[C@H](O)CC[C@@H](O)C[C@@H](O)CC(=O)O[C@H]1C)C[C@H](O)[C@H]2C(=O)O	inactive
CCCn1c(C)nc2c(NCCN3CCCC3)nc(C)nc21	inactive
Cc1nc(N2CCOCC2)c2nc(-c3ccccc3)n(CCCN(C)C)c2n1	inactive
O=C(c1cc(C(F)(F)F)cc(C(F)(F)F)c1)N1CCC2(CC1)CCN(c1ccncc1)CC2	inactive
CCCn1c(-c2ccc(F)cc2)nc2c(NCCCCN(CC)CC)nc(C)nc21	active
COc1ccc(CNc2ncncc2-c2cccnc2)c(OC)c1	active
c1cncc(CNc2nc(-c3ccoc3)nc3ccccc23)c1	active
COCCNc1cc(-c2ccccc2C(F)(F)F)ncn1	inactive
COc1ccc(-n2c(=O)c(-c3cn(C)c4ccccc34)nc3cnc(OC)nc32)cc1	active
COc1ccc(CNc2ncnc3ccc(-c4cccnc4)cc23)c(OC)c1	active
Cn1c(=O)c(-c2ccc(Cl)cc2)nc2cnc(N3CCOCC3)nc21	inactive
Cc1nc(N2CCOCC2)c2nc(-c3ccccc3)n(CCCN3CCOCC3)c2n1	active
Cc1nc(N2CCOCC2)c2nc(-c3ccccc3)n(CCN3CCCCC3)c2n1	active
CN(C)c1ncc2nc(-c3ccc(F)cc3)c(=O)n(Cc3ccc(F)cc3)c2n1	inactive
COc1ccc(CNc2cc(-c3ccccc3Cl)ncn2)c(OC)c1	active
CCN1CCCC1Cn1c(-c2ccccc2)nc2c(NCc3ccccc3)nc(C)nc21 (stereo not drawn)	active
O=C(c1ccncc1)N1CCC[C@@]2(CCN(c3ccccn3)C2)C1	active
Cc1noc(C)c1C(=O)N1CCC[C@@]2(CCN(C(=O)Nc3cccc(F)c3)C2)C1	active
Cc1ccccc1-c1cncnc1NCc1cccs1	active
Cc1noc(C)c1-c1nccc(-n2ccnc2)n1	active
Cc1cccc(CNc2ncncc2-c2cccc(C#N)c2)c1	active
Cc1nc(NCc2ccccc2)c2nc(-c3ccccc3)n(CCN3CCCCC3)c2n1	active
CCCn1c(-c2ccc(F)cc2)nc2c(NCCCCN3CCCC3)nc(C)nc21	active
Cc1ccccc1-c1cc(NCCN2CCOCC2)ncn1	inactive
CCCn1c(C)nc2c(N(C)CCN(C)C)nc(C)nc21	inactive
O=C(c1cnccn1)N1CCC[C@@]2(CCN(c3ccncc3)C2)C1	active
O=C(c1ccncc1)N1CCC2(CC1)CN(C(c1ccccc1)c1ccccc1)C2	inactive
COc1cccc(-c2cncnc2N(C)Cc2ccco2)c1	active
CCN(CC)CCCCn1c(-c2ccccc2)nc2c(NCc3ccccc3)nc(C)nc21	active
Cc1noc(C)c1C(=O)N1CCC[C@@]2(CCN(c3ccccc3)C2)C1	active
Cc1nc(NC2CCCCC2)c2nc(-c3ccccc3)n(CCN3CCCCC3)c2n1	active
CCCn1c(C)nc2c(NCCCCN(C)C)nc(C)nc21	inactive
CCN(CC)CCCCn1c(-c2ccccc2)nc2c(Nc3ccccc3)nc(C)nc21	inactive
COc1ccc(CNc2ncnc3ccc(-c4cccc(C#N)c4)cc23)c(OC)c1	active
c1csc(CNc2ncnc3ccc(-c4ccoc4)cc23)c1	active
CCCn1c(C)nc2c(NCCN3CCCCC3)nc(C)nc21	inactive
O=C1CC(c2ccc(O)cc2)Oc2ccccc21 (stereo not drawn)	active
CCN(CC)CCCCn1c(-c2ccccc2)nc2c(NCCOC)nc(C)nc21	inactive
FC(F)(F)c1ccccc1-c1nc(NCCN2CCOCC2)c2ccccc2n1	active
O=C(c1cc(C(F)(F)F)cc(C(F)(F)F)c1)N1CCC2(CC1)CN(c1ccccc1)C2	inactive
FC(F)(F)c1ccccc1-c1cc(NCc2ccccc2)ncn1	inactive
